# Assay Procedure: Solubility of the compound in water based media
# Format: physicochemical
# Condition Parameters: buffer
Observed Property: solubility

Compound	solubility
CC1(C)CC[C@]23CC[C@]4(C)[C@H](CC[C@@H]5[C@@]6(C)Cc7cnn(-c8ccccc8)c7C(C)(C)[C@@H]6CC[C@]54C)[C@H]2[C@H]1OC3	Insoluble
CC(C)[C@@H]1CC[C@]2(C(=O)O)CC[C@]3(C)[C@H](CC[C@@H]4[C@@]5(C)Cc6sc(Br)nc6C(C)(C)[C@@H]5CC[C@]43C)[C@@H]12	Insoluble
CC1(C)CC[C@]23CC[C@]4(C)[C@H](CC[C@@H]5[C@@]6(C)Cc7sc(Br)nc7C(C)(C)[C@@H]6CC[C@]54C)[C@H]2[C@H]1OC3	Insoluble
CC1(C)CC[C@]23CC[C@]4(C)[C@H](CC[C@@H]5[C@@]6(C)Cc7c(n[nH]c7O)C(C)(C)[C@@H]6CC[C@]54C)[C@H]2[C@H]1OC3	Insoluble

State the recorded solubility for this entry: `C=C(C)[C@@H]1CC[C@]2(C(=O)O)CC[C@]3(C)[C@H](CC[C@@H]4[C@@]5(C)Cc6c[nH]nc6C(C)(C)[C@@H]5CC[C@]43C)[C@@H]12`
Insoluble

State the recorded solubility for this entry: `CC(C)[C@@H]1CC[C@]2(C(=O)O)CC[C@]3(C)[C@H](CC[C@@H]4[C@@]5(C)Cc6c(n[nH]c6O)C(C)(C)[C@@H]5CC[C@]43C)[C@@H]12`
Insoluble
